Cited source for all entries: patent US6949349

# IC50 (mut)/IC50 (wt) values compiled below
Target Or Test System: T1, IGFBP-3 (human, UniProt P17936 28-291)
T1 construct: also called rhIGFBP-3
T1 sequence (P17936 28-291 limits assumed): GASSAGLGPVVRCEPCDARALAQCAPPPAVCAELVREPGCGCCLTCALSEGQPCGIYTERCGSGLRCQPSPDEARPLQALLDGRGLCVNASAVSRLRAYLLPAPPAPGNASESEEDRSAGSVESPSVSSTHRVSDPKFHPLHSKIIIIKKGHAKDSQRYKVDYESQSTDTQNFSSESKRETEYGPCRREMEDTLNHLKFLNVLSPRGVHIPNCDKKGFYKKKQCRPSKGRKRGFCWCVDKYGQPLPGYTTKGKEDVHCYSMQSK
Assay Explanation: BIAcore competition: peptide inhibits IGFBP-3 binding to IGF-I; ratio to bp3-01-ox
Positions of bridges follow the written chain, without caps; N, C: chain ends. No end group written: not given here.
Numeric answer only, unit ratio assumed.

Recorded results for 4 binders are shown here.
binder="SEEVCWPVAEWYLCN-NH2 (disulfide 5-14 (inferred)) [bp3-39]" meas_value=0.33
binder="CWPVAEWYLCN [bp3-25 (SEQ ID NO:106)]" meas_value=23
binder="ASEEVCWPVAEWYLCN (bp3-01-ox variant) [bp3-30]" meas_value=2.8
binder="EEVCWPVAEWYLCN (bp3-01-ox variant) [bp3-28]" meas_value=2.7

Look up IC50 (mut)/IC50 (wt) for this binder: Ac-SEEVCWPVAEWYLCN-NH2 (disulfide 5-14 (inferred)) [bp3-40]
0.33

// returns reported IC50 (mut)/IC50 (wt) for input SEEVCWPVAEWYLCN (also called BP15) [bp3-15]
0.36
